target: ACE-2 (Homo sapiens, UniProt Q9BYF1); construct: a stop codon inserted after the serine immediately preceding the transmembrane domain; made in house; host or cells: CHO K1 cells (transient transfection, purified from conditioned medium); assay: ACE-2 Competitive Substrate Assay (ACS Assay); assay type: biochemical; conditions: Table 3, very good ACE-2 inhibiting compounds; species not given; read-out: ACE-2 Activity, Ki
Sequence (Q9BYF1 18-740 limits assumed): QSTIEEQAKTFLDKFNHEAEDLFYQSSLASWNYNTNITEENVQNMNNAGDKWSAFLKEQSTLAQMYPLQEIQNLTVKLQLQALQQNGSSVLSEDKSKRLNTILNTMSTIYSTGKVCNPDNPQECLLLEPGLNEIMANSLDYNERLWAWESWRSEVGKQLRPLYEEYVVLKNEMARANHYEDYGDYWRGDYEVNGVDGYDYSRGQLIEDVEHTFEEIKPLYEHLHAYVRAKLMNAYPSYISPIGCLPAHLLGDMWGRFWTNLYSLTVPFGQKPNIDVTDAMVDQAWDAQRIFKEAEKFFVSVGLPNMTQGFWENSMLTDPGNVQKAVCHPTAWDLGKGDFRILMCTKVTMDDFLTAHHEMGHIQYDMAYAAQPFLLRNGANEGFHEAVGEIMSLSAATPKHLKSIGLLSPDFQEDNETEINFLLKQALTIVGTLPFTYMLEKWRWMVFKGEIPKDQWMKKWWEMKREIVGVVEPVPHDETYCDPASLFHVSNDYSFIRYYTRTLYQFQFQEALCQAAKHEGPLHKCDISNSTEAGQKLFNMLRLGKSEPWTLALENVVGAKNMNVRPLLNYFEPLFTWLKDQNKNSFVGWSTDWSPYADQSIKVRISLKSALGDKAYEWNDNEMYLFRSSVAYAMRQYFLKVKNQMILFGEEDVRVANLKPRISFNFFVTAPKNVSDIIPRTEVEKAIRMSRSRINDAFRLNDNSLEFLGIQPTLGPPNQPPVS
Measured Ki, listed per entry.

>  <compound>
CC(C)C[C@H](N[C@@H](Cc1ccc(Oc2ccc(F)cc2)cc1)C(=O)O)C(=O)O

>  <Ki>
50 to 100 nM

$$$$
>  <compound>
CC(C)CC(N[C@@H](Cc1cncn1Cc1cccc(Cl)c1Cl)C(=O)O)C(=O)O (single isomer, unassigned)

>  <Ki>
< 50 nM

$$$$
>  <compound>
CC(C)C[C@H](N[C@@H](Cc1cc(-c2ccc(Cl)c(Cl)c2)on1)C(=O)O)C(=O)O

>  <Ki>
50 to 100 nM

$$$$
>  <compound>
CC(C)C[C@H](N[C@@H](Cc1ccc(C(=O)Nc2cc(Cl)cc(Cl)c2)cc1)C(=O)O)C(=O)O

>  <Ki>
< 50 nM

$$$$
>  <compound>
Cc1ccc(-n2ccc(C[C@H](N[C@@H](CC(C)C)C(=O)O)C(=O)O)n2)cc1

>  <Ki>
50 to 100 nM

$$$$
>  <compound>
Cc1ccnc(-c2ccc(C[C@H](N[C@@H](CC(C)C)C(=O)O)C(=O)O)cc2)c1

>  <Ki>
50 to 100 nM

$$$$
>  <compound>
CC(C)CC(N[C@@H](Cc1cncn1Cc1cc(Cl)ccc1Cl)C(=O)O)C(=O)O (single isomer, unassigned)

>  <Ki>
< 50 nM

$$$$
>  <compound>
CC(C)C[C@H](N[C@@H](Cc1ccc(OCc2ccncc2)cc1)C(=O)O)C(=O)O

>  <Ki>
50 to 100 nM

$$$$
>  <compound>
CC(C)C[C@H](N[C@@H](Cc1ccc(-c2ccc3c(c2)OCO3)cc1)C(=O)O)C(=O)O

>  <Ki>
50 to 100 nM

$$$$
>  <compound>
CC(C)C[C@H](N[C@@H](Cc1cccc(OCc2cc(Cl)cc(Cl)c2)c1)C(=O)O)C(=O)O

>  <Ki>
50 to 100 nM

$$$$
>  <compound>
Cc1ccc(-c2ccc(C[C@H](N[C@@H](CC(C)C)C(=O)O)C(=O)O)cc2)cc1

>  <Ki>
< 50 nM

$$$$
>  <compound>
COc1ccccc1C(=O)Nc1ccc(C[C@H](N[C@@H](CC(C)C)C(=O)O)C(=O)O)cc1

>  <Ki>
< 50 nM

$$$$
>  <compound>
Cc1ccc(-c2nc(C[C@H](N[C@@H](CC(C)C)C(=O)O)C(=O)O)cs2)cc1

>  <Ki>
< 50 nM

$$$$
>  <compound>
CC(C)C[C@H](N[C@@H](Cc1cc(-c2ccc(Cl)cc2)on1)C(=O)O)C(=O)O

>  <Ki>
< 50 nM

$$$$
>  <compound>
Cc1ccc(-c2ccc(C[C@H](N[C@@H](CC(C)C)C(=O)O)C(=O)O)cc2)nc1

>  <Ki>
< 50 nM

$$$$

Each recorded value in this set is attributed to patent US7045532B2.
